The reported measurements were obtained from PubChem BioAssay (NCI).

# System: RPMI-8226 leukemia
# assay text: NCI tumour cell line growth inhibition, 48 h
Item-by-item account of TGI
measurement type: TGI

1. O=CC1C[C@@H](N2C(=O)O[C@@H](c3ccccc3)[C@H]2c2ccccc2)[C@@H]1COCc1ccccc1 (some centres not stated) :: > 100 µM
2. C=CCCCCCC(O)C(O)C/C=C\C/C=C\CC (configuration not stated) :: > 18.8 µM
3. CN(C)CCNC(=O)c1cc2c3ccccc3[nH]c2c2ncccc12 :: 22.7 µM
4. COC(=O)[C@@]1(O)C[C@H]2O[C@]1(C)n1c3ccccc3c3c4c(c5c6ccccc6n2c5c31)C(=O)NC4 :: 1.33 µM
5. CC1=Nn2c(nnc2-c2ccc(N)cc2)NC(C)(C)C1 :: > 100 µM
6. O=C1CCc2cc3c(cc21)CC1(Cc2cc4c(cc2C1)CCCC4)C3 :: > 100 µM
7. O=C(NCP(=O)(O)O)c1cccnc1 :: > 100 µM

----------
# Tested on: LOX IMVI melanoma
# assay text: NCI tumour cell line growth inhibition, 48 h; in the data active = GI50 below about 0.43 µM; inactive = the rest
Labels: active, inactive

1. CCCCCCCCCCCC[n+]1ccc(C(N)=O)cc1 :: inactive
2. O=Cc1ccc(O)c2ncccc12 :: inactive
3. COC(=O)[C@@]1(O)C[C@H]2O[C@]1(C)n1c3ccccc3c3c4c(c5c6ccccc6n2c5c31)C(=O)NC4 :: active
4. O=C(CCCCCCC(=O)Nc1ccc2c(c1)/C(=C/c1ccc[nH]1)C(=O)N2)NO :: inactive
5. CC1=C(C(=O)Nc2ccc(F)c(Cl)c2)C(c2cccc(Oc3ccccc3)c2)NC(=O)N1 (stereo not given) :: inactive

----------
# System: EKVX NSCLC
# assay text: NCI tumour cell line growth inhibition, 48 h
measurement type: TGI

1) c1ccc(SC(CCCCOC2CCCCO2)Sc2ccccc2)cc1 (stereo not drawn) :: > 100 µM
2) Cc1cc(=O)oc2cc(OCc3nc4ccccc4c(=O)[nH]3)ccc12 :: > 100 µM
3) CC(C)C[C@@H]1NC(=O)[C@@H]2CCCN2C(=O)[C@@H]2CCCN2C(=O)[C@H](CC(C)C)NC(=O)[C@H](CO)NC(=O)[C@H](CCCCN)NC(=O)[C@H]([C@H](C)O)NC(=O)[C@@H]2CCCC[C@@H](NC1=O)C(=O)N[C@@H](Cc1ccccc1)C(=O)N1CCC[C@H]1C(=O)N[C@@H](CC(=O)O)C(=O)NCC(=O)N[C@@H](CCCN=C(N)N)C(=O)N2 :: > 50 µM

----------
# Test system: HL-60(TB) leukemia
# assay text: NCI tumour cell line growth inhibition, 48 h
measurement type: TGI (µM)

1. CC(C)(C)[Si](C)(C)OCC#C[C@@]1(O)CCCCC1CC(Sc1ccccc1)Sc1ccccc1 (some centres undefined) :: 41.9
2. CS(=O)(=O)Nc1cc(-c2ccc3ncnc(Nc4ccc5c(cnn5Cc5ccccc5F)c4)c3c2)cnc1Cl :: 6.02
3. C=CC(=O)Nc1cccc(C)c1Nc1ncc2cc(-c3c(Cl)c(OC)cc(OC)c3Cl)ccc2n1 :: 15
4. COc1cc(/C=C2\CC3C4CC[C@H]5C[C@@H](O)CC[C@]5(C)C4CC[C@]3(C)C2=O)cc(OC)c1OC (some centres undefined) :: 43.2
5. CN1CCN(CCCCN2c3ccccc3Sc3ccc(N=[N+]=[N-])cc32)CC1 :: 3.69
6. CN1CCn2c(c(Sc3ccc(C(=O)NO)cc3)c3ccccc32)C1=O :: 32
7. C=C1C(=O)O[C@H]2[C@H]1CC/C(CNS(=O)(=O)c1cccc3ccccc13)=C\CC[C@@]1(C)O[C@@H]21 :: 3.76
8. CC(=O)c1cccc(NC(=O)C(=O)C(C(=O)c2ccccc2F)C2OC(=O)c3ccccc32)c1 (centres undefined) :: 64.8
9. CN(C)c1ccc(O)c2c1C[C@H]1C[C@H]3[C@H](N(C)C)C(=O)C(C(N)=O)=C(O)[C@@]3(O)C(=O)C1=C2O :: 40.4

----------
Item-by-item account of TGI
# System: BT-549 breast
# assay text: NCI tumour cell line growth inhibition, 48 h
measurement type: TGI

1. CC(C)(C)[Si](C)(C)OCC#C[C@@]1(O)CCCCC1CC(Sc1ccccc1)Sc1ccccc1 (stereo partly drawn) :: 36.3 µM
2. CCCCCCCCCCCC[n+]1ccc(C(N)=O)cc1 :: 4.7 µM
3. CN(C)CCCNc1ccc2nnn3c4ccc(OC(=O)c5ccc([N+](=O)[O-])cc5)cc4c(=O)c1c23 :: 35.8 µM
4. COc1ccc(/C=C2\CN(C)CC3C2=NC(=S)NC3c2ccc(OC)cc2)cc1 (stereo not drawn) :: > 100 µM
5. CN(C)CCNC(=O)c1cc(-c2nccn2C)nc2ccccc12 :: > 100 µM
6. Cc1nn(C(=O)Cc2ccccc2)c2c1C(c1ccccc1[N+](=O)[O-])SC(N)=N2 (stereo not drawn) :: > 100 µM
7. Clc1nc(Cl)c(Cc2ccccc2)c(Cl)n1 :: 8.52 µM
8. CN(C)CCNC(=O)c1cc2c3ccccc3[nH]c2c2ncccc12 :: 20.7 µM
9. O=C(NCP(=O)(O)O)c1cccnc1 :: > 100 µM
10. COC(=O)/C(=C\c1cn(C(C)=O)c2ccccc12)P(=O)(OC)OC :: 29.6 µM
11. Nc1ncc(CN2CCOCC2)c(-c2ccccc2O)n1 :: > 100 µM
12. Oc1ccc(N=Nc2ccc(N=Nc3ccccc3)cc2)cc1 :: 9.06 µM
13. O=C1/C(=C/c2ccc(Cl)cc2)COc2ccc(O)c(O)c21 :: 4.04 µM
14. O=C1C(=C(C(=O)c2ccccc2)C(=O)c2ccccc2)OC(c2ccccc2)=C1C(=O)c1ccccc1 :: 19.9 µM
15. COc1cccc(C[C@H]2COC(=O)[C@]2(O)Cc2cccc(OC)c2)c1 :: > 100 µM
16. O=C(NCC(C(=O)OCc1ccccc1)C(=O)OCc1ccccc1)OCc1ccccc1 :: > 100 µM
17. CCOC(=O)c1nc2ccccc2nc1Oc1ccc(OC)cc1 :: > 100 µM
18. CC(C)CCCC(C)[C@H]1CC[C@H]2[C@@H]3CC[C@H]4C[C@@H](CCC=C(c5cc(Cl)c(O)c(C(=O)O)c5)c5cc(Cl)c(O)c(C(=O)O)c5)CC[C@]4(C)[C@H]3CC[C@]12C (stereo partly drawn) (tested in a mixture with another compound) :: > 50 µM
19. N=C(N)c1ccc(-c2ccc(-c3cccs3)s2)nc1 :: 16.3 µM
20. N/C(COc1ccc(Cl)cc1)=N\NC(=O)c1ccncc1 :: > 100 µM
21. C1=NCCNCCN=Cc2ccccc2OCc2cccc(n2)COc2ccccc21 :: 44.4 µM
22. COc1ccc2c(c1)OC(N)=C(C#N)C2c1ccc(F)cc1 (stereo not drawn) :: 31.2 µM
23. CC(C)c1nc2c(Cl)c3ncccc3cc2[nH]c1=O :: > 100 µM

----------
# System: HOP-62 NSCLC
# assay text: NCI tumour cell line growth inhibition, 48 h; in the data active = GI50 below about 0.43 µM; inactive = the rest
Labels: True = active, False = inactive

1. O=Cc1ccc(O)c2ncccc12 :: False
2. CC(C)C[C@@H]1NC(=O)[C@@H]2CCCN2C(=O)[C@@H]2CCCN2C(=O)[C@H](CC(C)C)NC(=O)[C@H](CO)NC(=O)[C@H](CCCCN)NC(=O)[C@H]([C@H](C)O)NC(=O)[C@@H]2CCCC[C@@H](NC1=O)C(=O)N[C@@H](Cc1ccccc1)C(=O)N1CCC[C@H]1C(=O)N[C@@H](CC(=O)O)C(=O)NCC(=O)N[C@@H](CCCN=C(N)N)C(=O)N2 :: False
3. Cc1nn(-c2nc3ccccc3[nH]2)c2c1C(c1ccc3c(c1)OCO3)CC(=O)N2 (stereo unspecified) :: False
4. COc1ccc2c(c1)OC(N)=C(C#N)C2c1ccc(F)cc1 (stereo unspecified) :: False
5. COc1ccc2nc(C)cc(Nc3ccccc3O)c2c1 :: False
6. N#Cc1nc2cc(F)c(F)cc2nc1-c1ccc(Cl)cc1 :: False
7. C=CC(=O)Nc1cccc(C)c1Nc1ncc2cc(-c3c(Cl)c(OC)cc(OC)c3Cl)ccc2n1 :: False
8. COC(=O)c1cc2oc(/C=C3\SC(=S)N(NC(C)=O)C3=O)cc2n1Cc1ccccc1 :: False
9. N=C(N)c1ccc(-c2ccc(-c3cccs3)s2)nc1 :: False
10. COc1ccc(/C=C/C(=O)c2cc3c(N)c(C(=O)Nc4ccccc4)sc3nc2C)cc1 :: True
11. COCCNC(=O)c1ccc(-c2nc3ccc4[nH]ncc4c3c3c2CCCC3)cc1 :: False

----------
# Tested on: RXF 393 renal
# assay text: NCI tumour cell line growth inhibition, 48 h
Outcome label depends on TGI relative to 40 µM: at/above gives condition met, below gives condition not met.

1. CSC(=S)OC1C(CO[Si](C)(C)C(C)(C)C)OC2OC(C)(C)OC21 (stereo unspecified) :: condition not met
2. COC(=O)/C=C(/C(=O)OC)c1c(C)cc2c(C)cc(C)cc(C)c1-2 :: condition met
3. CCN(CC)CCC(=O)c1ccc(Oc2ccccc2)cc1 :: condition not met
4. COc1ccccc1/C=N/N=C(\N)NO :: condition met
5. CCCCCCCCCCCC[n+]1ccc(C(N)=O)cc1 :: condition not met
6. COc1cccc2c(=O)c3c(sc12)c(NCCN(C)C)nc1ccccc13 :: condition not met
